Target Or System: Uncharacterized protein (Sus scrofa, UniProt I3LIR5)
Sequence (I3LIR5 whole entry): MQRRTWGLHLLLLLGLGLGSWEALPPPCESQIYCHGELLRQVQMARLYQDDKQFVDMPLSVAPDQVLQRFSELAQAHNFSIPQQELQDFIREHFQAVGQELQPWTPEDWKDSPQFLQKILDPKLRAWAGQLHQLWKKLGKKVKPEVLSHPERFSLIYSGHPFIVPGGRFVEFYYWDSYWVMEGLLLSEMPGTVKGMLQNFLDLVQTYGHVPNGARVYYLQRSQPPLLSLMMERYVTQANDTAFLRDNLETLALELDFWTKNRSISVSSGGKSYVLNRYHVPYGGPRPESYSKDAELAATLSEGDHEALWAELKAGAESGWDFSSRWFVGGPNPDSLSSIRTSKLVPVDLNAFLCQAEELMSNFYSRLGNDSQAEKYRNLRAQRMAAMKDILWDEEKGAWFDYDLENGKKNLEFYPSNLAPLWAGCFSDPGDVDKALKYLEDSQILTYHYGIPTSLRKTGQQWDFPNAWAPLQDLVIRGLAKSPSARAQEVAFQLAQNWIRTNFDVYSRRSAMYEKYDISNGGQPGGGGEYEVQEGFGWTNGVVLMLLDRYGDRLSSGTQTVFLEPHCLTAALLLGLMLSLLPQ
pIC50: −log10 of the molar value.
Recorded pIC50 for compounds tested on Uncharacterized protein (Sus scrofa, UniProt I3LIR5), drawn from a number of studies.
Measure: pIC50

1) OCC1(CO)CO/C(=N\c2ccc(F)cc2F)N1; 3.05
2) OCC1(CO)CO/C(=N\c2ccc(F)cc2)N1; 3.58
3) OCC1(CO)CS/C(=N\c2ccc(F)cc2F)N1; 2.21
4) OCCN1C[C@H](O)[C@@H](O)[C@H](O)[C@H]1CO; 3.15
5) OC[C@H]1NC[C@H](O)[C@@H](O)[C@@H]1O; 4.39

1. OCC1(CO)CO/C(=N\c2ccc(F)c(Cl)c2)N1
2. CCCC[C@H]1N[C@H](CO)[C@@H](O)[C@H](O)[C@H]1O
input: Identify the entry with the smaller pIC50: 1 or 2 . Label of pick, please.
output: 2
(2: 3.76, 1: 4.45)
